Organism: Mus musculus
Details: in vivo, po, 20 mg/kg
Experimental readout: Cmax

Write down Cmax measured for item Cc1ccc(Nc2ncc3c(n2)N(C)C(=O)N(c2cc(NC(=O)c4cccc(C(F)(F)F)c4)ccc2C)C3)cn1 3.62 µM

* * *

Experiment: Tmax in BALB/c mouse at 5 mg/kg, iv
Type: ADME, organism-based
Parameters: dose 5 mg/kg, route intravenous
Conditions: in vivo
Experimental readout: Tmax (min)
Answers are plain numbers, in min.

Specify measured Tmax for Cc1ccc(Nc2ncc3c(n2)N(C)C(=O)N(c2cc(NC(=O)c4cccc(C(F)(F)F)c4)ccc2C)C3)cn1 . 1.8

* * *

Experiment: cells
Conditions: Mus musculus, BaF3
pIC50: −log10 of the molar value.
Experimental readout: pIC50

Answer with the recorded pIC50 for the compound listed here: CNc1ncc2c(n1)N(C)C(=O)N(c1cc(NC(=O)c3cc(-n4cnc(C)c4)cc(C(F)(F)F)c3)ccc1C)C2 > 8.30

* * *

System: SW-620
Assay: cells
Conditions: Homo sapiens
Experimental readout: IC50

Give IC50 for the following compound: Cc1ccc(Nc2ncc3c(n2)N(C)C(=O)N(c2cc(NC(=O)c4cccc(C(F)(F)F)c4)ccc2C)C3)cn1 1 nM

* * *

Assay: in vivo
Conditions: BALB/c, mouse, iv, 5 mg/kg
Experimental readout: Vd (L/kg)
One number for each entry, in L/kg.

Identify measured Vd corresponding to Cc1ccc(Nc2ncc3c(n2)N(C)C(=O)N(c2cc(NC(=O)c4cccc(C(F)(F)F)c4)ccc2C)C3)cn1 1.12
